targetSystem: hEP3A/Gqi5 (Homo sapiens)
Construct: expressed in transfected cells; host or cells: HEK-293(EBNA)
Sequence (P43115 1-390): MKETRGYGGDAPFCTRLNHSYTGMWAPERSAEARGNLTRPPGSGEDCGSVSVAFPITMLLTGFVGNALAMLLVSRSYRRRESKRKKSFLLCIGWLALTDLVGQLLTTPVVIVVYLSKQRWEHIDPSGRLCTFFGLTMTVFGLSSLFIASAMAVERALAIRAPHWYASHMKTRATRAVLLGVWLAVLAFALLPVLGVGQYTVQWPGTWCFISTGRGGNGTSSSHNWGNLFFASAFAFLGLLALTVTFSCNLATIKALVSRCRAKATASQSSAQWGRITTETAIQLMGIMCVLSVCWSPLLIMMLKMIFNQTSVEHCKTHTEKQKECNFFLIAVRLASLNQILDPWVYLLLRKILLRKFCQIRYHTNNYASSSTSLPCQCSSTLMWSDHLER
measurementDescription: FLIPR calcium signal, hEP3A
Format: cell-based
testSettings: read-out: Other Receptors EC50 hEP3A
Give pEC50 for every item shown.
To interpret pEC50, take it as minus log10 of a concentration measured in moles per litre.

# get_value(readout= pEC50, system= hEP3A/Gqi5 (Homo sapiens)) for CCCCCC(O)c1ccc(N2C(=O)CC[C@@H]2CCCc2ccc(C(=O)O)s2)cc1 (single isomer, unassigned) [drawing 180] 7.15

Form field: pEC50 recorded for CCCCCC(O)c1ccc(N2C(=O)CC[C@@H]2CCCc2ccc(C(=O)O)s2)cc1 (single isomer, unassigned) [drawing 150] with hEP3A/Gqi5 (Homo sapiens) (enter value) 7.92

Form field - read-out: pEC50; system: hEP3A/Gqi5 (Homo sapiens); submitted item: CCCCCCC(O)c1ccc(N2C(=O)CC[C@@H]2CCCc2ccc(C(=O)O)s2)cc1 (single isomer, unassigned) [drawing 183] 8.15

# value lookup — system hEP3A/Gqi5 (Homo sapiens), readout pEC50, item "CCCCCC(=O)c1ccc(N2C(=O)CC[C@@H]2CCCc2ccc(C(=O)O)s2)cc1" 5.63

Provide the documented pEC50 with hEP3A/Gqi5 (Homo sapiens) as the system for CCCCCCC(O)c1ccc(N2C(=O)CC[C@@H]2COCc2ccc(C(=O)O)s2)cc1 (single isomer, unassigned) [drawing 153] 6.21

Provide value of pEC50 for this record tested with hEP3A/Gqi5 (Homo sapiens): CCCCCC(O)c1ccc(N2C(=O)CC[C@@H]2COCc2ccc(C(=O)O)s2)cc1 (single isomer, unassigned) [drawing 176] 6.82

Lab note: need pEC50 with hEP3A/Gqi5 (Homo sapiens) for entry CCCCCCC(O)c1ccc(N2C(=O)CC[C@@H]2CCCc2ccc(C(=O)O)s2)cc1 (single isomer, unassigned) [drawing 184] , please look it up. 7.48

Request: pEC50, test system hEP3A/Gqi5 (Homo sapiens), entry CCCCCC(O)c1ccc(N2C(=O)CC[C@@H]2COCc2ccc(C(=O)O)s2)cc1 (single isomer, unassigned) [drawing 149] 5.92
